TARGET OR SYSTEM: T1, talin1 F2F3 domains
T1 chain: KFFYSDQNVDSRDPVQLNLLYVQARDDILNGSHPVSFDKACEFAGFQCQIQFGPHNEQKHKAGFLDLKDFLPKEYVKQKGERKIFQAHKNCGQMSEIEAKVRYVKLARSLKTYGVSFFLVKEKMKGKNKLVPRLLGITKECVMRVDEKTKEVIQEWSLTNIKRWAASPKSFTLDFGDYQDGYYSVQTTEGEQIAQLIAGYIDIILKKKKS
PROTOCOL DESCRIPTION: FP
Ends that are not written are not given here.
MEASURED PARAMETER: Kd (µM)
All answers are understood in µM, so give the number only.

## Input What does the data say about its Kd? Entry: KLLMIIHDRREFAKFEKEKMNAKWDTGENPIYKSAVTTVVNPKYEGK (not fully specified (N-terminus)) [β1A]
## Output 95.1
